A collection of variants and their measured protein stability index
B1: TMEM120A (parent)
chain: YQSFVQFLQYYYQSGCLYRLRALG

variants of: B1; test: protein stability index of a GFP-peptide fusion (GPS, HEK-293T) (PSI 1-6); higher = more stable; details: c terminus: a fixed tail appended;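 also: lentivirally expressed fusions sorted by FACS into six bins by GFP to DsRed ratio, PSI derived from sequencing read proportions per bin multiplied by bin number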
Give a plain numeric answer without units written out.

item_sequence=YQSFVQFLQYYYQSGQLYRLRALG reported_measurement=2.49
item_sequence=YQSFVQFLQYYYQSGCFYRLRALG reported_measurement=2.63
item_sequence=YQSFVQFTQYYYQSGCLYRLRALG reported_measurement=1.88
item_sequence=YQSFVQNLQYYYQSGCLYRLRALG reported_measurement=3.1

Entry YQSFVQFLQYYYQSGCLYRLRALP has what protein stability index?
2.47

Entry YQSFVQFLQYYYQSGCLKRLRALG has what protein stability index?
1.86

Entry YQSFVQFLQYYYQSGCLYTLRALG has what protein stability index?
1.74

Entry YQSFVQFLQCYYQSGCLYRLRALG has what protein stability index?
2.56

Entry YQSFQQFLQYYYQSGCLYRLRALG has what protein stability index?
1.89

Entry IQSFVQFLQYYYQSGCLYRLRALG has what protein stability index?
2.24

Entry YQSFVQFLQYYYGSGCLYRLRALG has what protein stability index?
2.27
